Assign Inhibition of Cell Proliferation IC50 to each entry below.
STUDY_SYSTEM: human TSLP recombinant protein (human, UniProt Q969D9 29-159, biotinylated in the blocking and cell-binding assays (sites not given))
ASSAY_METHOD_TEXT: cell-based or functional assay
Give bare numbers, in nM.

Ab20 (antibody, V domains shown, Humanized; also called h71G4VHv2/h71G4VKv1) VH: QVQLVQSGAEVKKPGSSVKVSCKASGYTFTDYWMHWVRQAPGQGLEWMGTIDNSDSDTTYNQKFQGRVTLTVDTSTSTAYMELSSLRSEDTAVYYCARSVDGYLDYWGQGTLVTVSS VL: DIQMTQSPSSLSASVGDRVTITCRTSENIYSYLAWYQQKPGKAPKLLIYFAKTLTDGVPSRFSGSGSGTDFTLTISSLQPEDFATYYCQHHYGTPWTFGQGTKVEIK ... 46.2
Murine anti-39G5 (mAb39G5) (antibody, V domains shown, also called murine antibody 39G5) VH: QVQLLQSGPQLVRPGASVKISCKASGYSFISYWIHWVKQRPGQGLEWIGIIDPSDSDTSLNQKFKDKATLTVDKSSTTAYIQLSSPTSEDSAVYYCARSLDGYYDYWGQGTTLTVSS VL: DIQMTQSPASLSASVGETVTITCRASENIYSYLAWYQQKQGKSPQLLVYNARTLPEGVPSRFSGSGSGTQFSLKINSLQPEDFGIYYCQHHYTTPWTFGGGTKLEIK ... 58.9

Let us move to another entry and its Inhibition of Cell Proliferation IC50.
**Query** Give a short answer stating reported Inhibition of Cell Proliferation IC50 for Ab23 (antibody, V domains shown, Humanized; also called h39G5VHv2/h71G4VKv1; h39G5VHv2/h71G4VKv1 hIgG1) VH: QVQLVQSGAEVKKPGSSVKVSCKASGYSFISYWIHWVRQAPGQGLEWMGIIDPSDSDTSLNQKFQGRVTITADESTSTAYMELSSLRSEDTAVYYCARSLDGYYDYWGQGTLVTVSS VL: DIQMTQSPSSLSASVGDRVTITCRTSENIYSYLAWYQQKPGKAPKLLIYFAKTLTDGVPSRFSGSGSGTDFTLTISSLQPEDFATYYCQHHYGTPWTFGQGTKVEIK .
**Result** 1.1
